- TESTED_TARGET: SARS-CoV-2 S2 domain (SARS-CoV-2, UniProt P0DTC2 686-1213)
- PROTOCOL_NOTES: ELISA (FIG. 2C grouping)
REPORTED_METRIC: binding result

1) 2-G20-A (antibody, V domains shown) VH: EVQLQQSGPELVKPGASVKMSCKASGYTFPSYVLHWVKQKPGQGLEWIGYIYPYNDGTNYNEKFKGKATLTSDKSSSTAYMELSSLTSEDSAVYYCARGDYGDSAWFPYWGQGTLVTVSA VL: DIVLTQSPASLAVSLGQRATISCRASKSVSTSGYSYMHWYQQKPGQPPKLLIYLASNLKSGVPARFSGGGSGTDFTLNIHPVEEEDAATYYCQLSRELPWTFGGGTKLEIK; no binding
2) 1-L10-A (antibody, V domains shown) VH: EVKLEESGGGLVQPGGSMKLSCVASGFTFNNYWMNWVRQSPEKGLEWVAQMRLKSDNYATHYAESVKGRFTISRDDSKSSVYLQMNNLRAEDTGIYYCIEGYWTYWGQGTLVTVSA VL: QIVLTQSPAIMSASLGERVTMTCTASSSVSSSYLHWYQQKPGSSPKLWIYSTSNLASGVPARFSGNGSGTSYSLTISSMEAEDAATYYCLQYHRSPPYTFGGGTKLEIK; no binding
3) 7-D7-A (antibody, V domains shown) VH: QVQLKESGPGLVAPSQSLSITCTVSGFSLTSYAISWVRQPPGKGLEWLGVIWPGGGTNYNSALKSRLSISKDNSKSQVFLKMNSLQTDDTAKYYCARTGYYFDYWGQGTTLTVSS VL: QLILTQSPAIMSASPGEKVTMTCSASLSVNYMYWFQQKPGTSPKRWIHDTSKLASGVPARFSGSGSGTSYSLTISSMEAEDAATYYCQQWSSNPPMYTFGGGTKLEIK; no binding

Just for reference, patent US20240239875A1 is where these values come from.
